Entries and their measured IC50 follow.
Target: OXA 24/40 (Acinetobacter baumannii)
Sequence (Q8RLA6 22-275): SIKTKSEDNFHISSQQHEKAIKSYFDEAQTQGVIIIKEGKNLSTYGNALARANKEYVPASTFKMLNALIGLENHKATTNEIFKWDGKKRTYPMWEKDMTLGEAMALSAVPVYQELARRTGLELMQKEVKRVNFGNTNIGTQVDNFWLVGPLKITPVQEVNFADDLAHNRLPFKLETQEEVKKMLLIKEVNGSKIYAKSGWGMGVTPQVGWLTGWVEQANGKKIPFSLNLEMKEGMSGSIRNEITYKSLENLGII
Test: β-lactamase inhibition, spectrophotometric assay of nitrocefin hydrolysis

* CC1(C)[C@H](C(=O)O)N2C(=O)C[C@H]2S1(=O)=O [Sulbactam, reference compound] | > 200 µM

Query string: Lab note: need IC50 with OXA 24/40 (Acinetobacter baumannii) for entry O=C(NC1CCNCC1)[C@@H]1CC[C@@H]2CN1C(=O)N2OS(=O)(=O)O [Relebactam, reference compound] , please look it up.
Result string: > 200 µM

Query string: # returns recorded IC50 (system: OXA 24/40 (Acinetobacter baumannii)) for O=C(O)[C@H]1/C(=C/CO)O[C@@H]2CC(=O)N21 [Clavulanate, reference compound]
Result string: > 200 µM

----------
System: A.b TNP 41708
Assay: MIC against A. baumannii clinical isolates, alone and in combination with antibiotics
Type: cell-based
Details: Acinetobacter baumannii, TNP41708, read-out: MIC A.b TNP 41708
MEASURED_ATTRIBUTE: MIC

Worked cases, MIC given:
- C[C@]1(/C=N/NC(=O)[C@H](CO)NC(=O)c2ccc(O)c(O)c2Cl)[C@H](C(=O)O)N2C(=O)C[C@H]2S1(=O)=O: > 128 µg/mL
- C[C@H](NC(=O)c1ccc(O)c(O)c1Cl)C(=O)N/N=C/[C@@]1(C)[C@H](C(=O)O)N2C(=O)C[C@H]2S1(=O)=O: > 128 µg/mL
- C[C@@H](O)[C@H]1C(=O)N2C(C(=O)O)=C(SCCN=CN)C[C@H]12 [Imipenem, reference compound]: 32 µg/mL

Query string: Quick one: MIC of C[C@]1(/C=N/NC(=O)c2ccc(O)cc2)[C@H](C(=O)O)N2C(=O)C[C@H]2S1(=O)=O ?
Result string: > 128 µg/mL
